Each record here notes measured pseudotyped virus neutralization IC80.
# experimental system: full-length SARS-CoV-2 spike, WA-1 / Wuhan-1 (S wt) (SARS-CoV-2, UniProt P0DTC2 14-1273)
# test summary: cell-based or functional assay
State the value, then name its unit.

Some binders with recorded pseudotyped virus neutralization IC80:
A20-36.1 (antibody, V domains shown) VH: QVQLVESGGGVVQPGRSLRLSCAASGFIFSSYGVHWVRQAPGKGLEWVAVIWHDESNKDYADSVKGRFTISRDNSKNTVYLQMNSLRAEDTAMYYCARDGYDFLTGAYELDYWGQGTLVTVSS VL: SYELTQPPSVSVSPGQTARITCSGDALPKQYAYWYQQKPGQAPVVVIYKDSERPSGIPERFSGSSSGTTVTLTISGVQAEDEADYYCQSADSSGTWVFGGGTKLTVL    3.76 µg/mL
A19-46.1 (antibody, V domains shown) VH: QVQLVESGGGVVQPGRSLRLSCAASGFTLSSYGMHWVRQAPGKGLEWVAVISYDGSNKYYVDSVKGRFTISRDNSKNTLYLQMNSLRAEDTAVYYCARGWAYWELLPDYYYGMDVWGQGTTVTVSS VL: QTVVTQEPSFSVSPGGTVTLTCGLSSGSVSTAYFPSWYQQTPGQAPRTLIYGTNTRSSGVPDRFSGSILGNKAALTITGAQADDESDYYCVLYMGRGIVVFGGGTKLTVL    0.129 µg/mL

Here is the next item to consider.
Data request: Read off the recorded pseudotyped virus neutralization IC80 for A20-29.1 (antibody, V domains shown) VH: EVQLVESGGGLVQPGRSLRLSCAASGFTFDDYAMHWVRQTPGKGLEWVSGISWNSGDIDYADSVKGRFTISRDNAKNSLYLQMNSLRTEDTALYYCTKGWFGEFFGAGSICDYWGQGTLVTVSS VL: EIVMTQSPATLSVSPGERATLSCRASQSVSNNLAWYQQKPGQAPRLLIYGASTRATGIPARFSGSGSGTEFTLTISSLQSEDFAVYYCQQYNNWPLFGQGTKVEIK
Data returned: 1.36 µg/mL
